pIC50: −log10 of the molar value. Counter-ions that a name gives are not always drawn.
Recorded pIC50 values (DPP-II (Homo sapiens (Human), UniProt Q9UHL4)) are given below.

> print(dat)
                                   compound  result
1  N[C@@H](CC(=O)N1CCc2c(nc(C3CCC3)nc2C(F)(F)F)C1)CN1C(=O)CCC(F)(F)C1O (stereo partly shown) [Example 5, hydrochloride]  < 3.79

Recorded pIC50 for COCCc1nc2c(c(C(F)(F)F)n1)CCN(C(=O)C[C@H](N)CN1C(=O)CCC(F)(F)[C@@H]1O)C2 [Example 10, hydrochloride] on DPP-II (Homo sapiens (Human), UniProt Q9UHL4) was < 3.40

Considering `N[C@@H](CC(=O)N1CCc2c(nc(-c3ccncc3)nc2C(F)(F)F)C1)CN1C(=O)CCC(F)(F)[C@@H]1O` , its pIC50 with DPP-II (Homo sapiens (Human), UniProt Q9UHL4) was recorded as < 4.15

So the reported pIC50 for N[C@@H](CC(=O)N1CCc2c(nc(-c3ccco3)nc2C(F)(F)F)C1)CN1C(=O)CCC(F)(F)[C@@H]1O [Example 8, hydrochloride] , on DPP-II (Homo sapiens (Human), UniProt Q9UHL4), turned out to be < 4.10
